- Tested on: 16HBE cells (human epithelial cells of bronchial origin)
- PROCEDURE TEXT: Cell viability test (MTT reduction)
MEASURED PARAMETER: Average percentage of cell viability (±standard deviation) (%)
Form entry: value (%) — number only.

Consider the reported Average percentage of cell viability (±standard deviation) for these compounds:
[[record]]
compound = "C[C@@]12CCC3[C@@](CCC4[C@](C)(COC(=O)C(=O)O)CCC[C@]43C)(CC1)C2 (some centres unmarked)"
target_under_test = "16HBE cells (human epithelial cells of bronchial origin)"
unit = "%"
readout_value = 90.55

[[record]]
compound = "C[C@]12C=C[C@@]3(CCC4[C@@](C)(COC(=O)CCC(=O)O)CCC[C@@]4(C)C3CC1)C2 (some centres unmarked)"
target_under_test = "16HBE cells (human epithelial cells of bronchial origin)"
unit = "%"
readout_value = 102.95

[[record]]
compound = "C[C@]12C=C[C@@]3(CC[C@@H]4[C@@](C)(COC(=O)C(=O)O)CCC[C@@]4(C)[C@@H]3CC1)C2"
target_under_test = "16HBE cells (human epithelial cells of bronchial origin)"
unit = "%"
readout_value = 86.07


Per the record, C[C@@]12CCC3[C@@](CCC4[C@@]3(C)CCC[C@@]4(C)C(=O)O)(CC1)C2 (some centres unmarked) has Average percentage of cell viability (±standard deviation) of 99.52

# Average percentage of cell viability (±standard deviation) of C[C@]12C=C[C@@]3(CCC4[C@@](C)(COC(=O)CC(=O)O)CCC[C@@]4(C)C3CC1)C2 (some centres unmarked) = 106.63

---

- Tested on: 16HBE cells (human epithelial cells of bronchial origin)
- PROCEDURE TEXT: Cell viability test (MTT reduction);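 also: formazan absorbance at 570 nm after MTT reduction, corrected for cell-free blank wells, reported relative to untreated cells, from duplicate wells over three independent repeats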
- CONDITION SET: 16HBE, 15.63 μM, 18 hours, MTT, vs untreated cells
The molecules listed here are annotated with their Average percentage of cell viability (±standard deviation).
Numbers only; they are read as %.

[[record]]
molecule = "C[C@]12C=C[C@@]3(CCC4[C@@](C)(COC(=O)CCC(=O)O)CCC[C@@]4(C)C3CC1)C2 (stereo partly shown)"
unit = "%"
readout_value = 99.77

[[record]]
molecule = "C[C@@]12CCC3[C@@](CCC4[C@@](C)(COC(=O)C(=O)O)CCC[C@]43C)(CC1)C2 (stereo partly shown)"
unit = "%"
readout_value = 94.06

[[record]]
molecule = "C[C@@]12CCC3[C@@](CCC4[C@@]3(C)CCC[C@@]4(C)C(=O)OC3OC(CO)C(O)C(O)C3O)(CC1)C2 (stereo partly shown)"
unit = "%"
readout_value = 97.27

[[record]]
molecule = "C[C@]12C=C[C@@]3(CCC4[C@@](C)(COC(=O)CC(=O)O)CCC[C@@]4(C)C3CC1)C2 (stereo partly shown)"
unit = "%"
readout_value = 107.42

[[record]]
molecule = "C[C@@]12CCC3[C@@](CCC4[C@](C)(COC(=O)C(=O)O)CCC[C@]43C)(CC1)C2 (stereo partly shown)"
unit = "%"
readout_value = 92.64

[[record]]
molecule = "C[C@]12C=C[C@@]3(CC[C@@H]4[C@@](C)(COC(=O)C(=O)O)CCC[C@@]4(C)[C@@H]3CC1)C2"
unit = "%"
readout_value = 90.80


Alright, here's another molecule for you.
Measured Average percentage of cell viability (±standard deviation), C[C@@]12CCC3[C@@](CCC4[C@@]3(C)CCC[C@@]4(C)C(=O)O)(CC1)C2 (stereo partly shown) : 97.98
